QUANTITY_KIND: melting point

MOLECULE | melting point
CCOC(=O)Cc1ccc(NC(=O)Nc2ccccc2C(F)(F)F)cc1 | 137 to 139 °C
NC(=O)c1cc(OCCNCc2ccccc2)ccc1O | 140 °C
CCCCCCCCC(=O)Nc1cccc([N+](=O)[O-])c1 | 63 to 63.5 °C
Cc1[nH]c(C=O)c(C)c1CNC(=O)C(F)(F)F | 200 °C
N#Cc1ccc(N2C(=O)N(CCF)C(CF)(CF)C2=O)cc1C(F)(F)F | 136 to 137 °C
CC(C)(C)OC[C@@H]1NCCN(CC(=O)O)C1=O | 178 to 180 °C
CCc1c(C(=O)O)nn(-c2ccc(Cl)cc2Cl)c1-c1ccc(Cl)s1 | 207 to 208 °C
O=C(NCCO)c1cncc(-c2cccc3cc(Cc4cc(F)cc(Cl)c4)sc23)c1 | 126 to 127 °C

Value sought for every listed molecule: melting point.
1. CCOC(=O)N1CCC2(CC1)N=C(N)c1c(F)cccc1O2
2. CC=C1c2ccccc2CC(=NO)c2ccccc21
3. CCN1C(=O)CC2(CC(=O)N(Cc3ccccc3)C2)C1=O (stereo unspecified)

["114 to 116 °C", "128 to 131 °C", "125 to 126 °C"]

====

QUANTITY_KIND: melting point

Solved cases below.
STRUCTURE | melting point
OCC1(CO)c2ccccc2C=Cc2ccccc21 | 162 to 163 °C
O=c1[nH]cc(Cl)cc1Br | 170 to 173 °C
O=C(O)C(=O)CC(=O)c1cccn1Cc1cccc2ccccc12 | 172 to 174 °C
CCCCCCCCCN(c1ccccc1)P(=O)(O)O | 64 to 65 °C

Proceeding to the next compound to report its melting point.
Which melting point value belongs to `COc1cc2c(cc1Nc1ncc(Cl)c(Nc3ccccc3S(=O)(=O)N(C)C)n1)CCN(CCN1CCOCC1)C(=O)C2` ?
75 to 91 °C

====

Please respond with reported melting point for every item in the list.

In the examples that follow, each entry is paired with its recorded melting point.
STRUCTURE | melting point
COc1ccc(Cl)c2c1CN(Nc1ccncc1)C2 | 229 to 230 °C
CCN(C(=O)OC(C)(C)C)c1cnn(C(C)(C)C)c1Cl | 50 to 52 °C

Now consider a different compound.
If you can, please state the reported melting point value of `CNc1cc(NS(=O)(=O)c2cccc(C(F)(F)F)c2)nc(NC)n1` .
234 to 235 °C

====

Can you tell me melting point for the items I'm about to list?

Recorded results for 2 molecules are shown here.
MOLECULE | melting point
CCCN1NC(c2ccc(Cl)cc2)C2=C1C(=Cc1ccc(Cl)cc1)CSC2 (stereo unspecified) | 192 to 194 °C
CCC(=O)NCCc1c(-c2ccccc2)nn2ccc3occc3c12 | 161 to 163 °C

Working through the 4 molecules below one at a time, give melting point for each.
1. O=C(CCl)NC(c1ccc(F)cc1)c1ccc(F)cc1
2. CC(NC(=O)C(C)(Cc1c[nH]c2ccccc12)NCc1cc2ccccc2o1)c1ccn(C)c1 (stereo unspecified)
3. O=P(O)(O)CCCCCCCCC(F)(F)C(F)(F)C(F)(F)C(F)(F)F
4. N#CC=CNc1ccnc(-c2ccncc2)n1

["128 °C", "53 to 57 °C", "87 to 89 °C", "253 to 255 °C"]

====

For each entry below, report its melting point value.

STRUCTURE | melting point
CS(=O)(=O)c1ncc(F)c(N)n1 | 157 to 159 °C
CCn1c(C=Cc2ccccc2)cnc1[N+](=O)[O-] | 154 to 156 °C

Field: next molecule
Entry under review: `COCOCc1nc(N)c2ncc(O)nc2n1` . Reported melting point?
210 to 212 °C

====

So I've got a bunch of molecules here, and I need their melting point values.

Some solved entries appear below for comparison.
MOLECULE | melting point
CCCCCCCCCCCCCCCC(=O)C1=C(O)COC1=O | 81 to 83 °C
COc1cc2c(cc1OC)-c1ccc(OC)c(OC)c1C2=Cc1ccnc2ccccc12 | 203 to 205 °C
Cc1cc(=O)n(C)c2cc(OCCCN3CCC(NC(=O)c4ccccc4)CC3)ccc12 | 193 to 195 °C

Provide reported melting point for each item, in the same order as listed.
1. Cc1ccc(S(=O)(=O)NC(C)C(=O)Cl)cc1 (configuration not stated)
2. Cc1cc(C(C)(C)C)cc(C)c1S(F)(F)F
3. O=C(Nc1ccccc1C(=O)N1CCCCC1)N[C@@H](Cc1ccc(NC(=O)c2c(Cl)cccc2Cl)cc1)C(=O)O
4. c1ccc(Cc2nc(COc3ccc(CCCn4ccnc4)cc3)co2)cc1
5. Cc1c(NC(=O)c2ccc(OCC3CCCO3)cc2)ccc2cc(CNC3CCC(O)CC3)cnc12 (configuration not stated)
6. Cc1ccc(-c2[nH]nc3c2Cc2ccccc2-3)cc1

1. 101 to 102 °C
2. 59.1 °C
3. 191 °C
4. 61 to 62 °C
5. 155 °C
6. 250 to 252 °C

Quick one: give me melting point for each item below, same order please.
1. COc1ccccc1CNC(=O)c1ccc2c(c1)N(C(C)CN1CCCC1)c1ccccc1S2 (racemic)
2. COCNC(=O)NC(=O)C(C#N)=NOC

1: 127 °C; 2: 164 to 165 °C

melting point lookup needed for OCC1(O)CSC(=S)N1c1ccccn1 (configuration not stated) , thanks.
134 to 135 °C

====

Assignment: determine reported melting point for the given compounds.

Reference set, count: 6
COMPOUND | melting point
NCc1c(-c2ccc(O)cc2)nnn1-c1ccc(C(F)(F)F)cc1Cl | 96.5 to 98.9 °C
N#CC(C(=O)c1cccnc1)c1ccccc1 (configuration not stated) | 148 to 149 °C
C[C@H](CSC(=O)c1ccccc1)C(=O)O | 63 to 65 °C
CCOC(=O)c1cc(-c2ccc(Cl)cc2)ns1 | 87.5 to 89 °C
O=C(O)c1ccc(F)c(F)c1Nc1ccc(I)cc1F | 199 to 201 °C
COC1C=C2CC(OC(C)=O)CCC2(C)C2CCC3(C)C(=O)CCC3C12 (configuration not stated) | 175 to 178 °C

Entry `Cc1ccc(-c2nc3ccccc3s2)nc1` has what melting point?
170 °C

====

Hi there, I'd appreciate the recorded melting point for every entry that follows.

Would you please look over these solved cases?
COMPOUND | QUANTITY_KIND | REPORTED_VALUE
O=C1CCC(N2C(=O)c3ccc(CNC(=O)c4ccc5ccccc5n4)cc3C2=O)C(=O)N1 (centres undefined) | melting point | 205 to 207 °C
CC(=O)OCC(C(OC(C)=O)c1cccc(F)c1)[N+](=O)[O-] (centres undefined) | melting point | 94 °C
CS(=O)(=O)c1ccc(/C(=C\CC2CCCC2)C(=O)O)cc1 | melting point | 162 to 165 °C
C=C(C)n1c(=O)n(CCN(C)Cc2ccccc2)c2ccccc21 | melting point | 107 to 109 °C
COc1ccc(-c2nc(S(=O)(=O)c3ccc(C)cc3)n(Cc3ccccc3)c2-c2ccc(OC)cc2)cc1 | melting point | 154 to 156 °C
CN(C)N=Nc1cc(-c2ccccc2)sc1C(=O)O | melting point | 162 to 166 °C
CCOC(=NC(=O)Nc1ccc(OC(F)(F)F)cc1)c1ccccc1F | melting point | 93 to 95 °C
CN(C)c1ccc2[nH]c3c([N+](=O)[O-])ccc(Cl)c3c(=O)c2c1 | melting point | > 300 °C

// for each compound below, give its melting point
1. CNc1ccc2sc3ccc(Br)cc3c(=O)c2c1
2. Cc1c(Br)c(NC(=O)CC(C)(C)C)c(C)c2c1OCC2c1ccc(C(C)C)cc1 (centres undefined)
3. Cc1cc(-c2ccco2)ccc1-c1cc(C(F)(F)F)nn1-c1ccc(S(C)(=O)=O)cc1
4. COc1nc(C(=O)NS(=O)(=O)c2c(Cl)cccc2Cl)cs1
5. COC(=O)c1cccc2cc(-c3ccc(N)cc3)oc12

1. 198 to 200 °C
2. 174 to 175 °C
3. 175 to 177 °C
4. 162 to 165 °C
5. 158 to 161 °C

GET /values?readout=melting point&item= CN1C(=O)Nc2ccccc2C1(O)C(=O)NC(N)=O (centres undefined)
> 280 °C

====

Field: melting point. Provide a value for each of the compounds that follow.

Consider the following illustrative entries.
COMPOUND | REPORTED_VALUE
Cc1cc([N+](=O)[O-])ccc1N=C1C2CC3CC(C2)CC(C3)N1C1CCCC1 | 149 to 152 °C
CCC[C@H]1CC[C@H]([C@H]2CC[C@H](C3=CC(=O)CCC3)CC2)CC1 | 96 °C
CCCN(CCC)C(=O)C(CCC(=O)OC)NC(=O)C(C(=O)OC)=C1SC=CS1 (stereo unspecified) | 115 to 117 °C
CC(C)Cn1cc(-c2ccc3nnn(Cc4ccc5ncccc5c4)c3n2)cn1 | 160 to 163 °C
N#Cc1ccc2[nH]c3c(c2c1)CC(NC(=O)OCc1ccccc1)CC3 (stereo unspecified) | 141 to 143 °C

# get_value(readout='melting point', item= `Cc1noc([C@@H](Cc2ccccc2)NC(=O)[C@@H](Cc2ccc3ccccc3c2)NC(=O)C2CCN(C(=O)OC(C)(C)C)CC2)n1` )
152 to 155 °C
